Task for the reader: assign each of the following molecules its reported log10 of IC50.
- target.under.test: KRAS G12D (amino acids 1-169) (Homo sapiens, UniProt P01116, G12D)
- Construct: made in house; host or cells: E. coli
- Sequence (P01116 with tags, fused parts or gaps isoform P01116-2 G12D): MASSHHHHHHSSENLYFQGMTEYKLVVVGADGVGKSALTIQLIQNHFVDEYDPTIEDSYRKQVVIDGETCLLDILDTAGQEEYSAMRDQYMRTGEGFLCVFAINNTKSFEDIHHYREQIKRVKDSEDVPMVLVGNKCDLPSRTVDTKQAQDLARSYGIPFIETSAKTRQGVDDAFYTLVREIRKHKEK
- test: SOS-catalyzed nucleotide exchange assay (Procedure B, BODIPY FL GDP displacement), KRAS G12D
- Type: biochemical
- recorded.conditions: read-out: KRAS G12D GNE IC50
Base-10 log of IC50, unit nM.

[Q] Give log10 of IC50; test system KRAS G12D (amino acids 1-169) (Homo sapiens, UniProt P01116, G12D); molecule Cc1cc2[nH]ncc2c(-c2nccn3c2c(F)c2nc(OC[C@@]45CCCN4C[C@H](F)C5)nc(N4CCOC[C@@](C)(O)C4)c23)c1C1CC1
[A] 0.67

[Q] Give log10 of IC50; test system KRAS G12D (amino acids 1-169) (Homo sapiens, UniProt P01116, G12D); molecule C[C@@]1(O)COCCN(c2nc(OC[C@@]34CCCN3C[C@H](F)C4)nc3sc4c(-c5c6c(cc7[nH]ncc57)CCC6C#N)nccc4c23)C1 (stereo partly drawn)
[A] 1.64

[Q] Give log10 of IC50; test system KRAS G12D (amino acids 1-169) (Homo sapiens, UniProt P01116, G12D); molecule C[C@@]1(O)COCCN(c2nc(OC[C@@]34CCCN3C[C@H](F)C4)nc3sc4c(-c5c6c(cc7[nH]ncc57)CCC6C5CC5)nccc4c23)C1 (stereo partly drawn)
[A] 1.64

[Q] Give log10 of IC50; test system KRAS G12D (amino acids 1-169) (Homo sapiens, UniProt P01116, G12D); molecule COCC1CCc2cc3[nH]ncc3c(-c3nccc4c3sc3nc(OC[C@@]56CCCN5C[C@H](F)C6)nc(N5CCOC[C@@](C)(O)C5)c34)c21 (single isomer, unassigned)
[A] 0.50

[Q] Give log10 of IC50; test system KRAS G12D (amino acids 1-169) (Homo sapiens, UniProt P01116, G12D); molecule C#Cc1c(Cl)cc2[nH]ncc2c1-c1nccc2c1sc1nc(OC[C@@]34CCCN3C[C@H](F)C4)nc(N3CCOC[C@@](C)(O)C3)c12
[A] 0.86

[Q] Give log10 of IC50; test system KRAS G12D (amino acids 1-169) (Homo sapiens, UniProt P01116, G12D); molecule CCC1CC(F)(F)c2cc3[nH]ncc3c(-c3nccc4c3sc3nc(OC[C@@]56CCCN5C[C@H](F)C6)nc(N5CCOC[C@@](C)(O)C5)c34)c21 (stereo partly drawn)
[A] 0.55

[Q] Give log10 of IC50; test system KRAS G12D (amino acids 1-169) (Homo sapiens, UniProt P01116, G12D); molecule Cc1cc2[nH]ncc2c(-c2nccc3c2sc2nc(OC[C@@]45CCCN4C[C@H](F)C5)nc(N4CCOC[C@@](C)(O)C4)c23)c1C(C)C
[A] 1.51

[Q] Give log10 of IC50; test system KRAS G12D (amino acids 1-169) (Homo sapiens, UniProt P01116, G12D); molecule C[C@H]1CN2C[C@H](F)C[C@@]2(COc2nc(N3CCOC[C@@](C)(O)C3)c3c(n2)sc2c(-c4c(C5CC5)c(Cl)cc5[nH]ncc45)nccc23)C1
[A] 1.49

[Q] Give log10 of IC50; test system KRAS G12D (amino acids 1-169) (Homo sapiens, UniProt P01116, G12D); molecule C[C@@]1(O)COCCN(c2nc(OC[C@@]34CCCN3C[C@H](F)C4)nc3sc4c(-c5c(-c6cnco6)c(Cl)cc6[nH]ncc56)nccc4c23)C1
[A] 1.29

[Q] Give log10 of IC50; test system KRAS G12D (amino acids 1-169) (Homo sapiens, UniProt P01116, G12D); molecule CC1CC(F)(F)c2cc3[nH]ncc3c(-c3nccc4c3sc3nc(OC[C@@]56CCCN5C[C@H](F)C6)nc(N5CCOC[C@@](C)(O)C5)c34)c21 (stereo partly drawn)
[A] 0.30

[Q] Give log10 of IC50; test system KRAS G12D (amino acids 1-169) (Homo sapiens, UniProt P01116, G12D); molecule C[C@@]1(O)COCCN(c2nc(OC[C@@]34CCCN3C[C@H](F)C4)nc3sc4c(-c5c(C6(F)CC6)c(C6CC6)cc6[nH]ncc56)nccc4c23)C1
[A] 1.43

[Q] Give log10 of IC50; test system KRAS G12D (amino acids 1-169) (Homo sapiens, UniProt P01116, G12D); molecule Cc1cc2[nH]ncc2c(-c2nccc3c2sc2nc(OC[C@@]45CCCN4C[C@H](F)C5)nc(N4CCOCC5(CC(=O)N5)C4)c23)c1C(F)(F)F (stereo partly drawn)
[A] 1.76

---

- target.under.test: KRAS-WT (Homo sapiens)
- Sequence (P01116 with tags, fused parts or gaps isoform P01116-2): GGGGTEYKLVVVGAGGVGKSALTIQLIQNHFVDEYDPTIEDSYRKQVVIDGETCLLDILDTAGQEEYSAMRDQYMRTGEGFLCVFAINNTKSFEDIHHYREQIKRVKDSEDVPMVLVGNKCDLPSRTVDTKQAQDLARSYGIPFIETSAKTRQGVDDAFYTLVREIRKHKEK
- test: SOS-catalyzed nucleotide exchange assay (Procedure A, TR-FRET), KRAS-WT
- Format: biochemical
- recorded.conditions: nucleotide exchange, read-out: KRAS WT GNE IC50
measured.property: IC50 (nM)
Numeric answer only, unit nM assumed.

[Q] Output measured IC50 for this item: C#C[C@@H]1CCCc2cc3[nH]ncc3c(-c3nccc4c3sc3nc(OC[C@@]56CCCN5C[C@H](F)C6)nc(N5CCOC[C@@](C)(O)C5)c34)c21
[A] 186

[Q] Output measured IC50 for this item: C=C(C)c1c(Cl)cc2[nH]ncc2c1-c1nccc2c1sc1nc(OC[C@@]34CCCN3C[C@H](F)C4)nc(N3CCOC[C@@](C)(O)C3)c12
[A] 49.2

[Q] Output measured IC50 for this item: C[C@@]1(O)COCCN(c2nc(OC[C@@]34CCN3C[C@H](F)C4)nc3sc4c(-c5c(C6CC6)c(Cl)cc6[nH]ncc56)nccc4c23)C1 (single isomer, unassigned)
[A] 22.8

[Q] Output measured IC50 for this item: C[C@@]1(O)COCCN(c2nc(OC[C@@]34CCCN3C[C@H](F)C4)nc3sc4c(-c5c(C67CC(C6)C7)ccc6[nH]ncc56)nccc4c23)C1
[A] 286

[Q] Output measured IC50 for this item: C[C@@]1(O)COCCN(c2nc(OC[C@@]34CCCN3C[C@H](F)C4)nc3sc4c(-c5ccc(F)c6sc(N)c(C#N)c56)nccc4c23)C1
[A] 1520

[Q] Output measured IC50 for this item: C[C@@]1(O)COCCN(c2nc(OC[C@@]34CCCN3C[C@H](F)C4)nc3sc4c(-c5c(C(F)F)c(C(F)(F)F)cc6[nH]ncc56)nccc4c23)C1
[A] 231

[Q] Output measured IC50 for this item: C[C@@]1(O)COCCN(c2nc(OC[C@@]34CCCN3C[C@H](F)C4)nc3sc4c(-c5cccc(Cl)c5[Si](C)(C)C)nccc4c23)C1
[A] 434

[Q] Output measured IC50 for this item: Cc1cc2[nH]ncc2c(-c2nccc3c2sc2nc(OC[C@@]45CCCN4C[C@H](F)C5)nc(N4CCOCC5(CC(C)O5)C4)c23)c1C(F)(F)F (stereo partly drawn)
[A] 287

[Q] Output measured IC50 for this item: Cc1c(C(F)(F)F)c(-c2nccc3c2sc2nc(OC[C@@]45CCCN4C[C@H](F)C5)nc(N4CCOC[C@@](C)(O)C4)c23)c2cn[nH]c2c1F
[A] 281

[Q] Output measured IC50 for this item: Cc1cc2[nH]ncc2c(-c2nccn3c2c(Cl)c2nc(OC[C@@]45CCCN4C[C@H](F)C5)nc(N4CCOC[C@@](C)(O)C4)c23)c1C(F)(F)F
[A] 293

[Q] Output measured IC50 for this item: C[C@@]1(O)COCCN(c2nc(OC[C@@]34CCCN3C[C@H](F)C4)nc3sc4c(-c5c6cn[nH]c6cc6ccc(F)c(Cl)c56)nccc4c23)C1
[A] 43.6

[Q] Output measured IC50 for this item: C#Cc1c(C)cc2[nH]ncc2c1-c1nccc2c1sc1nc(OC[C@@]34CCCN3C[C@H](F)C4)nc(N3CCOC[C@@](C)(O)C3)c12
[A] 35.7

---

- target.under.test: KRAS-G12V (Homo sapiens, UniProt P01116, G12V)
- Sequence (P01116 with tags, fused parts or gaps isoform P01116-2 G12V): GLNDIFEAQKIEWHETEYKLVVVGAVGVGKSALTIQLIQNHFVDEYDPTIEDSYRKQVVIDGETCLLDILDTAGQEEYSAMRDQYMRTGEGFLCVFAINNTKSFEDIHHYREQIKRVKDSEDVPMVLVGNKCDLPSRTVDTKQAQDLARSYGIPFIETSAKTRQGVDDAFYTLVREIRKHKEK
- test: SOS-catalyzed nucleotide exchange assay (Procedure A, TR-FRET), KRAS-G12V
- Format: biochemical
- recorded.conditions: nucleotide exchange, read-out: KRAS G12V GNE IC50
pIC50: −log10 of the molar value.
Assign T whenever pIC50 does not fall below 7; assign F whenever it does.

[Q] Confirm if pIC50 reported for the compound C[C@@]1(O)COCCN(c2nc(OC[C@@]34CCCN3C[C@H](F)C4)nc3sc4c(-c5c(C6CC6)c(C(F)(F)F)cc6[nH]ncc56)nccc4c23)C1 is 7 or above.
[A] T

[Q] Confirm if pIC50 reported for the compound Cc1nc2[nH]nc(C)c2c(-c2nccc3c4c(N5CCOC[C@@](C)(O)C5)nc(OC[C@@]56CCCN5C[C@H](F)C6)nc4n(C)c23)c1C(F)(F)F is 7 or above.
[A] F

[Q] Confirm if pIC50 reported for the compound C[C@@]1(O)COCCN(c2nc(OC[C@@]34CCCN3C[C@H](F)C4)nc3sc4c(-c5c6cn[nH]c6cc6ccc(F)c(Cl)c56)nccc4c23)C1 is 7 or above.
[A] T

[Q] Confirm if pIC50 reported for the compound Cc1cc2[nH]ncc2c(-c2nccc3c2C2(CC2)c2nc(OC[C@@]45CCCN4C[C@H](F)C5)nc(N4CCOC[C@@](C)(O)C4)c2-3)c1C(F)(F)F (single isomer, unassigned) is 7 or above.
[A] T
